Cited source for all entries: ChEMBL document CHEMBL3259666

test: Half life in mouse at 20 mg/kg, ip by HPLC/MS/MS analysis; format: ADME, organism-based; design: dose 20 mg/kg, route intraperitoneal; conditions: in vivo
experimental_readout: half-life (h)
Just the number in h, nothing appended.

Query string: Sample COc1cccc(NCC(F)Cn2c3ccc(Br)cc3c3cc(Br)ccc32)n1 (racemic) — what was its half-life?
Result string: 15

###

biological target: hERG (KCNH2) (Homo sapiens); experiment: Inhibition of human ERG channel at 50 uM by patch clamp technique
Sequence (Q12809 whole entry): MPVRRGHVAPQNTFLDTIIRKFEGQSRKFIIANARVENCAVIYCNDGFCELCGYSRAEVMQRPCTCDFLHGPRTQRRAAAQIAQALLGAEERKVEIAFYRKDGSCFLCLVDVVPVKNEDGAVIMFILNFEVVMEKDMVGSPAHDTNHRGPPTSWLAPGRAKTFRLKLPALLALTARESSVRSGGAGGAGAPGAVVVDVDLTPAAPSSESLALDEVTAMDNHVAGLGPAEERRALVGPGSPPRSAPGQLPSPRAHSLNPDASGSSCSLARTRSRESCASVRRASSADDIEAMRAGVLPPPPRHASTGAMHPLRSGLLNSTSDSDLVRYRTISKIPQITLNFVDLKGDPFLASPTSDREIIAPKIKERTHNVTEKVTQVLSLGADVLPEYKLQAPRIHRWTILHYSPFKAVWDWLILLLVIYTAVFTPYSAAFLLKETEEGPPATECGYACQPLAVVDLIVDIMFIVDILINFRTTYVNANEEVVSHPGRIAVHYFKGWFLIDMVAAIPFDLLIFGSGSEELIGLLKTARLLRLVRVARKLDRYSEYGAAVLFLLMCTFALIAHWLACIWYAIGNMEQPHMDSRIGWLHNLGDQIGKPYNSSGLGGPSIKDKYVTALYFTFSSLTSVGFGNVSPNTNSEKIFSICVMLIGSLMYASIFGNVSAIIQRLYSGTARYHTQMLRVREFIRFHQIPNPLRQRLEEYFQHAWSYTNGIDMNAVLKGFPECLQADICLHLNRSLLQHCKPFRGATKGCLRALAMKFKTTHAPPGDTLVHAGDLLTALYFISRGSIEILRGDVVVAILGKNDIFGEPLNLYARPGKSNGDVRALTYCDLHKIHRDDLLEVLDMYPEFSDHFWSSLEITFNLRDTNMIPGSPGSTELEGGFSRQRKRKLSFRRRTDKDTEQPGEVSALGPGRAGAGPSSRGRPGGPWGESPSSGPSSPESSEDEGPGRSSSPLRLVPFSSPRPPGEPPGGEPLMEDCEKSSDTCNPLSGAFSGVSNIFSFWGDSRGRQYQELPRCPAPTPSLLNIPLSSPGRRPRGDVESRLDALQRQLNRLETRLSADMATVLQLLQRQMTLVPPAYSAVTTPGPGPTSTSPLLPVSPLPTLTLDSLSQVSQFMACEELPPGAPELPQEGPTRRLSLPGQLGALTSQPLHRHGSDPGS
experimental_readout: inhibition at 50 µM

Query string: Sample COc1cccc(NC[C@H](F)Cn2c3ccc(Br)cc3c3cc(Br)ccc32)n1 — what was its inhibition at 50 µM?
Result string: < 15%
